B1: LINE1-full (parent)
chain: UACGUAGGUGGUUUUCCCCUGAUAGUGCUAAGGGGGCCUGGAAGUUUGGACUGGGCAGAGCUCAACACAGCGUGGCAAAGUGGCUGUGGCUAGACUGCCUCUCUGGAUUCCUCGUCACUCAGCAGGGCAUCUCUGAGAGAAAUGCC

- Variants of: B1
- Assay summary: self-cleavage, relative activity (ratio to wild type); higher = more cleavage; in vitro, sequencing; the parent is a self-cleaving ribozyme
Quantity name: self-cleavage

Variant key	Quantity name	Obs value
U39A A138G	self-cleavage	1.27
G122A A124G	self-cleavage	0.62
U20A A121G	self-cleavage	1.14
U5A U73G	self-cleavage	0.48
G21A A31U	self-cleavage	1.43
A69C G83A	self-cleavage	0.02
U20A U119C	self-cleavage	1.05
A65G U102A	self-cleavage	0.01
G4U U39A	self-cleavage	1.95
G80A A107U	self-cleavage	2.11
G60C U102C	self-cleavage	0.06
